test system: HCT-15 colon; assay: NCI-60 one-dose screen, 48 h; settings: 10 µM unless noted
The panel holds about 83,000 compounds, 20% with a hit somewhere; the sample as a whole holds those more often. Activity calls are given as the source filed them. The calls were made as follows: active = growth percent below 10; inactive = the rest.
Permitted responses: Y = active, N = inactive

Solved cases (3 shown):
>>> class_name("COC(=O)c1c(NC(=O)CSc2nnnn2-c2ccc(OC)cc2)sc(C)c1C")
"N"
>>> class_name("Cc1ccc2c(c1)C(=O)/C(=C\\Nc1ccc(C(N)=O)cc1)C(O)O2 (centres undefined)")
"N"
>>> class_name("Nc1ccc2c(c1)C(=O)c1cc(Cl)c(Cl)cc1-2")
"N"

Qu. # outcome recorded in this test, key = "Cc1ncc(C(=O)Nc2ccc(CN3CCN(C)CC3)c(C(F)(F)F)c2)cc1C#Cc1cncc2ncccc12"
Ans. N

Qu. Look up the recorded call for "CCN(CC)CCOCC[C@H]1CC[C@H]2[C@@H]3[C@H](C)Cc4cc(OS(N)(=O)=O)ccc4[C@H]3CC[C@]12C" in this test.
Ans. Y

Qu. How was "COc1ccc(/C=C2\CCc3ccccc3C2=O)cc1" classified in this test?
Ans. N

----------
test system: RPMI-8226 leukemia; experiment: NCI-60 one-dose screen, 48 h (100 = growth as untreated, 0 = no growth, -100 = all killed); details: 10 µM unless noted
About 83,000 compounds went through this panel and 20% of them were active in at least one assay; those are over-represented in the sample as a whole. Activity calls are given as the source filed them. The calls were made as follows: active = growth percent below 10; inactive = the rest.
recorded-metric: growth

Guide cases for growth, answers given:
>>> reported_result("COc1ccc(-c2cc(-c3cccnc3)nc3sc(C(=O)Nc4ccccc4)c(N)c23)cc1OC")
"0.963% (active)"
>>> reported_result("N#Cc1c(-c2ccccc2)cc(-c2ccccc2)n(CCCC(=O)O)c1=O")
"103% (inactive)"

Qu. Returns the measured growth for the input compound. Input: "Cc1ccc(-c2c3c(N)nc(-c4ccncc4)nc3nc3c2c(C)nn3-c2ccccc2)cc1"
Ans. 62.5% (inactive)

Qu. Fill in: growth of "C=CCNC(=O)/C(=C/c1cccc([N+](=O)[O-])c1)NC(=O)c1ccccc1" is ___
Ans. 108% (inactive)

----------
tested on: SF-295 CNS; assay: NCI-60 one-dose screen, 48 h; settings: 10 µM unless noted
The panel holds about 83,000 compounds, 20% with a hit somewhere; the sample as a whole holds those more often. Activity calls are given as the source filed them. Rule for the calls: active = growth percent below 10; inactive = the rest.
Would you mind answering with one of these outcomes? y (active), n (inactive)

Would you please look over these solved cases?
>>> class_name("COc1cnc2c(c1)C(=O)c1c-2n(CCCNC(C)C)c(=O)c2cc(F)ccc12")
"y"
>>> class_name("Cc1cc(C)cc(S(=O)(=O)n2ccc(-c3ccc4c(c3)CCC(C)(C)O4)n2)c1")
"n"
>>> class_name("C(=C1c2ccccc2-c2ccccc21)c1ccccn1")
"n"
>>> class_name("c1ccc(-c2n(Cc3ccc4ccccc4c3)cc[n+]2Cc2ccc3ccccc3c2)cc1")
"y"

Qu. Assay result, entry "COc1cnc2c(c1)C(=O)c1c-2n(CCCN2CCCC2)c(=O)c2cc(F)ccc12" — outcome?
Ans. y

----------
test system: 786-0 renal; experiment: NCI-60 one-dose screen, 48 h (100 = growth as untreated, 0 = no growth, -100 = all killed); conditions: 10 µM unless noted
The panel holds about 83,000 compounds, 20% with a hit somewhere; the sample as a whole holds those more often.
recorded-metric: growth (%)
Give just the numeric value; % need not be written.

Use these answered entries as a reference point.
>>> reported_result("COc1c(O)cc2c(c1CC=C(C)C)OC(=O)c1c(cc(O)c(CC=C(C)C)c1O)O2")
19.3
>>> reported_result("O=C(N/N=C/c1cccc([N+](=O)[O-])c1)c1ccc(Br)o1")
92.5
>>> reported_result("N#Cc1c(-c2ccccc2)cc(-c2ccccc2)n(CC(=O)O)c1=O")
62.9
>>> reported_result("O=c1ccn(C2CC=C(CO)O2)c(=O)[nH]1 (stereo not given)")
93.4

Qu. Value wanted: growth (786-0 renal) of entry "Cc1[nH]c(=O)[nH]c(=O)c1CCSSCCc1c(C)[nH]c(=O)[nH]c1=O"
Ans. 103

----------
system: SF-539 CNS; assay: NCI-60 one-dose screen, 48 h; conditions: 10 µM unless noted
Compounds without any hit were thinned out: in the full panel of roughly 83,000, 20% have a hit. Activity calls are given as the source filed them. How the source made its calls: active means growth percent below 10; inactive means the rest.
Your answer must be one of the following: active, inactive

Worked examples follow.
>>> class_name("O=C1CNc2cc(Cl)ccc2N1")
"inactive"
>>> class_name("Cc1ccc(/C=C/C(=O)c2ccc(F)cc2)s1")
"inactive"
>>> class_name("COc1ccc(N2CCN(CC(=O)N3CCN(c4nnc(-c5ccccc5)c(-c5ccccc5)n4)CC3)CC2)cc1")
"inactive"
>>> class_name("O=C(Nc1ccccc1)c1cc(-n2cnc([N+](=O)[O-])c2)cc(-n2cnc([N+](=O)[O-])c2)n1")
"inactive"
>>> class_name("Cc1n(Cc2ccc3ccccc3c2)cc[n+]1Cc1ccc2ccccc2c1")
"active"
>>> class_name("N#Cc1c(-c2ccccc2)cc(-c2ccccc2)n(CCCCCCC(=O)O)c1=O")
"inactive"
>>> class_name("CS(=O)(=O)N1CCN(Cc2cc3nc(-c4cccc5[nH]ncc45)nc(N4CCOCC4)c3s2)CC1 (tested in a mixture with another compound)")
"active"
>>> class_name("Cc1ccc2nc(SCC(=O)Nc3ccc(-c4nc5ccccc5s4)c(Cl)c3)[nH]c2c1")
"inactive"

Could you now consider this next molecule?
Qu. // outcome(item) with item = "O=C(COc1cccc(/C=C2\Cc3ccccc3C2=O)c1)c1ccc(Cl)cc1"
Ans. inactive

----------
System: 786-0 renal
Assay: NCI-60 one-dose screen, 48 h
Conditions: 10 µM unless noted
Procedure: Cells are grown in 96 well plates and exposed to the test compound for 48 hours. Compounds are tested at a single concentration, which is 10^-5 M for most compounds. The reported endpoint is percent growth (GI% or GIPRCNT), where numbers from 0 - 100% represent growth inhibition, and numbers from -100% - 0 represent cell death. For example, a value of 40 represents 60% growth inhibition. A value of 0 means no net growth occurred over the course of the experiment. […]
The panel holds about 83,000 compounds, 20% with a hit somewhere; the sample as a whole holds those more often. Calls of active or inactive are those of the source. How the source made its calls: active means growth percent below 10; inactive means the rest.
Return exactly one item of active, inactive

Qu. Outcome? "O=C1NC(=S)S/C1=C\c1cc(Br)ccc1O"
Ans. inactive

----------
system: NCI-H226 lung; test: NCI-60 one-dose screen, 48 h (100 = growth as untreated, 0 = no growth, -100 = all killed); details: 10 µM unless noted
About 83,000 compounds went through this panel and 20% of them were active in at least one assay; those are over-represented in the sample as a whole.
Each item that follows carries a reported growth.
Give just the numeric value; % need not be written.

Use the examples below as a reference point.
>>> reported_result("O=[N+]([O-])c1ccc(N=Nc2c(Cl)cc(O)cc2Cl)cc1")
10.3
>>> reported_result("CC(NC(=O)Oc1cccc2ccccc12)c1ccccc1 (stereo unspecified)")
99.7
>>> reported_result("O=C(NCCCl)NCCN1c2nc3ccccc3cc2Sc2cc3ccccc3nc21")
63.5
>>> reported_result("COc1ccc(NC(=O)c2ccccc2-c2ccccc2)c(C(N)=O)c1")
70.2
>>> reported_result("CCOC(=O)Nc1ccc2c3c(cccc13)-c1ccccc1-2")
63.1

Qu. # value lookup — system NCI-H226 lung, readout growth, item O=CN1N=C(c2ccc(Cl)cc2)CC1c1cccc(Nc2ccnc3cc(Cl)ccc23)c1 (stereo unspecified)
Ans. 24.4

----------
tested on: SK-OV-3 ovarian; experiment: NCI-60 one-dose screen, 48 h (100 = growth as untreated, 0 = no growth, -100 = all killed); settings: 10 µM unless noted
The panel holds about 83,000 compounds, 20% with a hit somewhere; the sample as a whole holds those more often.
recorded-metric: growth (%)
Give just the number in %; leave the unit off.

>>> reported_result("COc1cc(/C=C/C(=O)CC(=O)/C=C/c2ccc(OC(=O)C3C4CC5CC(C4)CC3C5)c(OC)c2)ccc1OC(=O)C1C2CC3CC(C2)CC1C3 (centres undefined)")
110
>>> reported_result("O=C(O)C1C(c2ccccc2)c2ccccc2C(O)C1CO (centres undefined)")
94.9
>>> reported_result("CC1(C)CC2(C)CC(=O)C1C(C(=O)O)C2C(=O)O (centres undefined)")
101

Qu. Query: growth; subject: "COc1cc(/C=C2\CN(S(=O)(=O)c3ccc(C)cc3)C/C(=C\c3cc(CN4CCOCC4)c(O)c(OC)c3)C2=O)cc(CN2CCOCC2)c1O"
Ans. 42.6

----------
tested on: CAKI-1 renal; assay: NCI-60 one-dose screen, 48 h; conditions: 10 µM unless noted
Compounds without any hit were thinned out: in the full panel of roughly 83,000, 20% have a hit. Activity calls are given as the source filed them. Rule for the calls: active = growth percent below 10; inactive = the rest.
One label from this list, please: t (active), f (inactive)

>>> class_name("Cc1ccc2nc(-c3ccc(N(C)C)c(Br)c3)cn2c1")
"f"

Qu. Call for entry "COc1ccc2c(c1)c(CC(=O)[Se]C)c(C)n2C(=O)c1ccc(Cl)cc1" :
Ans. t

src = PubChem BioAssay (NCI)
